# targetOfAssay: acetylcholine muscarinic M1 receptor (CHOnfat/hM1 cells) (Homo sapiens)
# Construct: also called CHOK1/hM1)
# Sequence (P11229 whole entry): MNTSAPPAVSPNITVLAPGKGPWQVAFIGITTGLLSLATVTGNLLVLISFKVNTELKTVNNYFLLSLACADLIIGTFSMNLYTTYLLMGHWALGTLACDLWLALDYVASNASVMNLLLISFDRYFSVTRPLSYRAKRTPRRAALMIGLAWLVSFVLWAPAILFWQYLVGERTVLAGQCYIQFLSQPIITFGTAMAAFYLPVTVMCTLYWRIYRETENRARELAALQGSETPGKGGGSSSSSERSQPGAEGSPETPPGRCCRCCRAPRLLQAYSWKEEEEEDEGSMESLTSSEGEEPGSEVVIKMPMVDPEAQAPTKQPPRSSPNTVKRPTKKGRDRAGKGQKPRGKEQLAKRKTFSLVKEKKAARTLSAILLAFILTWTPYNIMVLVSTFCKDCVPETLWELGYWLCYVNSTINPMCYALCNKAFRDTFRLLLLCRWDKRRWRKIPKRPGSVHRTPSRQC
# protocolSummary: FLIPR intracellular calcium assay for M1 positive allosteric modulator activity (acetylcholine EC20, 3 nM)
# testConditions: 4 min preincubation, then EC20 acetylcholine (3 nM final), FLIPR Ca2+ readout, read-out: IP Value (inflection point)
measuredEndpoint: EC50 (nM)

Worked cases, EC50 given:
QUERY: Report measured EC50; entry is CCCN1CN([C@H]2CCCC[C@@H]2O)C(=O)c2cc(Cc3ccc(C)nc3)c3ccccc3c21 [Example 5]
RESULT: 1170

QUERY: Hello, please tell me recorded EC50 for this one: Cn1ccc2c(Cc3cc4c(c5ccccc35)NCN([C@H]3CCOC[C@@H]3O)C4=O)cccc21 [Example 1]
RESULT: 15

QUERY: Identify measured EC50 corresponding to CSc1ccc(Cc2cc3c(c4ccccc24)NCN([C@H]2CCOC[C@@H]2O)C3=O)cn1 [Example 3]
RESULT: 11.5

QUERY: Please report the measured EC50 for CN1CN([C@H]2CCOC[C@@H]2O)C(=O)c2cc(Cc3ccnc(CF)c3)c3ccccc3c21 [Example 6]
RESULT: 2.7

A: CN1CN([C@H]2CCOC[C@@H]2O)C(=O)c2cc(Cc3ccc(Cl)nc3)c3ccccc3c21 [Example 2]
B: CN1CN([C@H]2CCOC[C@@H]2O)C(=O)c2cc(Cc3ccnc(C(F)F)c3)c3ccccc3c21 [Example 7]
QUERY: Could you please tell me which of these two has the higher EC50: A or B ? Your answer should be the label attached to the chosen record.
RESULT: A
